Biological target: 20S proteasome (Homo sapiens) (UniProt P49721+P20618+P28074+P28062+P28065+P28072+P25786+P25787+P25788+P25789+P28066+P60900+O14818+Q8TAA3+P40306+A5LHX3+P49720+P28070+Q99436)
Test: Activation of human 20S proteosome assessed as increase in 7-amino-4-methylcoumarin release at 30 uM using mixture of chymotrypsin-like Suc-LLVY-AMC, trypsin-like Boc-LRR-AMC and caspase-like Z-LLE-AM fluorogenic peptides as substrates preincubated for 15 mins followed by substrate mixture addition and measured for 1 hr by fluorescence assay relative to control
Type: protein-complex assay
Conditions: filed as activator, time 75.0 min
Mark False for fold change (FC) values under 2, and True for everything at or above.

Illustrative cases are given below, each with its answer.
[
  {
    "compound": "COc1ccc2c(c1)N=C(c1ccccc1)N(C1CCN(C)CC1)C2c1ccccc1 (centres undefined)",
    "discrete_label": "False"
  },
  {
    "compound": "COc1ccc2c(c1)N=C(C)N(Cc1ccccc1)C2c1ccccc1 (centres undefined)",
    "discrete_label": "False"
  },
  {
    "compound": "COc1ccc2c(c1)N=C(c1ccccc1)N(CC1CCOCC1)C2c1ccccc1 (centres undefined)",
    "discrete_label": "False"
  },
  {
    "compound": "COc1ccc2c(c1)N=C(C1CCCCC1)N(Cc1ccccc1)C2c1ccccc1 (centres undefined)",
    "discrete_label": "True"
  },
  {
    "compound": "COc1ccc2c(c1)N=C(c1ccccc1)N(c1cccnc1)C2c1ccccc1 (centres undefined)",
    "discrete_label": "True"
  },
  {
    "compound": "COc1ccc2c(c1)N=C(c1ccccc1)N(CC1CCN(C)CC1)C2c1ccccc1 (centres undefined)",
    "discrete_label": "False"
  }
]

Would you say COc1ccc2c(c1)N=C(c1ccccc1)N(CC#N)C2c1ccccc1 (centres undefined) shows fold change (FC) at minimum 2?
True

Kindly determine if fold change (FC) recorded for COc1ccc2c(c1)N=C(c1ccccc1)N(CC1CCCCC1)C2c1ccccc1 (centres undefined) is above or exactly 2.
True

Is it the case that COc1ccc2c(c1)N=C(c1ccccc1)N(c1ccccc1)C2c1ccccc1 (centres undefined) has fold change (FC) reaching or exceeding 2?
True

* * *

Biological target: 20S proteasome (Homo sapiens) (UniProt P49721+P20618+P28074+P28062+P28065+P28072+P25786+P25787+P25788+P25789+P28066+P60900+O14818+Q8TAA3+P40306+A5LHX3+P49720+P28070+Q99436)
Assay: Activation of human 20S proteosome assessed as increase in 7-amino-4-methylcoumarin release at 30 uM using mixture of chymotrypsin-like Suc-LLVY-AMC, trypsin-like Boc-LRR-AMC and caspase-like Z-LLE-AM fluorogenic peptides as substrates preincubated for 15 mins followed by substrate mixture addition and measured for 1 hr by fluorescence assay relative to control
Assay type: protein-complex assay
Settings: filed as activator, time 75.0 min
Readings of fold change (FC) for the listed compounds
No unit in the answer, please; the number alone is enough.

[
  {
    "compound": "COc1ccc2c(c1)N=C(C(C)C)N(Cc1ccccc1)C2c1ccccc1 (stereo not given)",
    "reported_endpoint": "fold change (FC)",
    "reading": 2.3
  },
  {
    "compound": "COc1ccc2c(c1)N=C(c1ccccc1)N(C1CCCCC1)C2c1ccccc1 (stereo not given)",
    "reported_endpoint": "fold change (FC)",
    "reading": 6.7
  }
]

What value of measured fold change (FC) is listed for c1ccc(CN2C(c3ccccc3)=Nc3ccccc3C2c2ccccc2)cc1 (stereo not given) ?
4

Record request: fold change (FC) value, item COc1ccc2c(c1)N=C(c1ccccc1)N(Cc1ccccc1)C2c1ccccc1 (stereo not given)
7.9

Given the entry COc1ccc2c(c1)N=C(C1CC1)N(Cc1ccccc1)C2c1ccccc1 (stereo not given) , report its measured fold change (FC).
2.7

* * *

Target: 20S proteasome (Homo sapiens) (UniProt P49721+P20618+P28074+P28062+P28065+P28072+P25786+P25787+P25788+P25789+P28066+P60900+O14818+Q8TAA3+P40306+A5LHX3+P49720+P28070+Q99436)
Experiment: Activation of human 20S proteosome assessed as increase in 7-amino-4-methylcoumarin release at 30 uM using mixture of chymotrypsin-like Suc-LLVY-AMC, trypsin-like Boc-LRR-AMC and caspase-like Z-LLE-AM fluorogenic peptides as substrates preincubated for 15 mins followed by substrate mixture addition and measured for 1 hr by fluorescence assay relative to control
Assay type: protein-complex assay
Conditions: filed as activator, time 75.0 min
fold change (FC) reference
Answer with a bare number; do not write a unit.

Below are worked cases with known answers.
[
  {
    "compound": "CCCCCC1=Nc2cc(OC)ccc2C(c2ccccc2)N1Cc1ccccc1 (stereo not given)",
    "fold change (FC)": 2.8
  },
  {
    "compound": "C=CCN1C(c2ccccc2)=Nc2cc(OC)ccc2C1c1ccccc1 (stereo not given)",
    "fold change (FC)": 2.3
  }
]

Would you kindly share the measured fold change (FC) for COc1ccc2c(c1)N=C(c1ccccc1)N(c1ccccn1)C2c1ccccc1 (stereo not given) ?
6.9

Param item = CCCCCc1ccc2c(c1)N=C(c1ccccc1)N(Cc1ccccc1)C2c1ccccc1 (stereo not given) ; retrieve measured fold change (FC).
2.8

# lookup: fold change (FC) of COc1ccc2c(c1)N=C(c1ccccc1)N(CCc1ccccn1)C2c1ccccc1 (stereo not given)
2.8

Value lookup for fold change (FC); key = COc1ccc2c(c1)N=C(c1ccccc1)N(C1CCN(Cc3ccccc3)CC1)C2c1ccccc1 (stereo not given)
7

* * *

Target: 20S proteasome (Homo sapiens) (UniProt P49721+P20618+P28074+P28062+P28065+P28072+P25786+P25787+P25788+P25789+P28066+P60900+O14818+Q8TAA3+P40306+A5LHX3+P49720+P28070+Q99436)
Experiment: Activation of human 20S proteosome assessed as increase in 7-amino-4-methylcoumarin release at 30 uM using mixture of chymotrypsin-like Suc-LLVY-AMC, trypsin-like Boc-LRR-AMC and caspase-like Z-LLE-AM fluorogenic peptides as substrates preincubated for 15 mins followed by substrate mixture addition and measured for 1 hr by fluorescence assay relative to control
Assay type: protein-complex assay
Settings: filed as activator, time 75.0 min
reported_endpoint: fold change (FC)
Give only the figure.

Use these answered entries as a reference point.
[
  {
    "molecule": "Cc1ccc2c(c1)N=C(c1ccccc1)N(Cc1ccccc1)C2c1ccccc1 (centres undefined)",
    "fold change (FC)": 8.1
  },
  {
    "molecule": "COc1ccc2c(c1)N=C(c1ccccc1)N(Cc1ccccn1)C2c1ccccc1 (centres undefined)",
    "fold change (FC)": 2
  },
  {
    "molecule": "COc1ccc2c(c1)N=C(c1ccccc1)N(c1cccc3cccnc13)C2c1ccccc1 (centres undefined)",
    "fold change (FC)": 5.3
  }
]

Let us move to another entry and its fold change (FC).
Which fold change (FC) value is on record for CCCCCCN1C(c2ccccc2)=Nc2cc(OC)ccc2C1c1ccccc1 (centres undefined) ?
1.6
